Attribution: paper PMC10840383

Study Target: GluD2-T649A (Rattus norvegicus, UniProt Q63226, T649A)
Construct: expressed in transfected cells; host or cells: Xenopus laevis oocytes injected with cRNA
Sequence (Q63226 24-1007 T649A): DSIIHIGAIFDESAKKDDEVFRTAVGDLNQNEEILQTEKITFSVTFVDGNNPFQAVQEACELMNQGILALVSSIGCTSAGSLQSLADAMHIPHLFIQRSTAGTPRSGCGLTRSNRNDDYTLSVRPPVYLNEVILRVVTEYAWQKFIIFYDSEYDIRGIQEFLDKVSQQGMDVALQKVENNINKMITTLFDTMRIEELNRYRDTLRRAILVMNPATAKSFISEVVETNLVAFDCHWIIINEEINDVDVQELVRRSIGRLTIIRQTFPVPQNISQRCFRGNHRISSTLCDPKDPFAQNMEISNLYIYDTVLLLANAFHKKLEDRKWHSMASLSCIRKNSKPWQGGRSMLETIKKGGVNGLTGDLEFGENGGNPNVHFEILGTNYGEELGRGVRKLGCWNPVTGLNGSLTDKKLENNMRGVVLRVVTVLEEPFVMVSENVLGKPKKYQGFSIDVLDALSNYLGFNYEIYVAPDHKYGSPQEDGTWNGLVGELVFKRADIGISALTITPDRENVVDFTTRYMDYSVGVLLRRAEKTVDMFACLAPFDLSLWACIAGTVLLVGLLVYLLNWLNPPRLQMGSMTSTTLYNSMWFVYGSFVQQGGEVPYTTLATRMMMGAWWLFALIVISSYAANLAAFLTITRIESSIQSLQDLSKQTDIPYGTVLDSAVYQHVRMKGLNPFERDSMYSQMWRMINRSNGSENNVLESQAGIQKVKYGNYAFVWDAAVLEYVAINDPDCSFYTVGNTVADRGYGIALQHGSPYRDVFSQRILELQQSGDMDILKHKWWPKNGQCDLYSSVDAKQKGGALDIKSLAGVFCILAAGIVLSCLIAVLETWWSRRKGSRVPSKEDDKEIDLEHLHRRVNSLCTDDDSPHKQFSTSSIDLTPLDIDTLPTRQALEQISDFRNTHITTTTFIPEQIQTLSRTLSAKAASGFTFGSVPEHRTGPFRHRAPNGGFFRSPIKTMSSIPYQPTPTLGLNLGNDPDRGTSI
Protocol Details: TEVC of constitutive current, Xenopus oocytes expressing GluD2-T649A
Assay type: cell-based
Measurement Parameters: inhibition of constitutive current; 1 mM Ca2+; read-out: Pentamidine IC50
Measured Quantity: pIC50
Answer as the number alone; pIC50 is minus log10 of concentration in mol/L.

Report pIC50 for N=C(N)c1ccc(OCCCCCOc2ccc(C(=N)N)cc2)cc1 [Pentamidine, pentamidine] please.
7.44
